Data origin: PubChem BioAssay (NCI)

Test system: M14 melanoma
Assay: NCI tumour cell line growth inhibition, 48 h
metric_name: TGI (µM)
Answer in µM, number only, no unit symbol.

> print(dat)
                        structure.as.smiles  measured.number
1  CCCCCC(=O)N[C@H]1CCc2cc(O)c(O)c(O)c2-c2ccc(SC)c(=O)cc21             36.7
2           CC(=O)Oc1c(-c2ccccc2)oc2ccccc12             5.17
3  COc1cc2c3c(n(CCCNCCNCCN)c(=O)c2cc1OC)-c1cc2c(cc1C3=O)OCO2             14.7

In the following, a different compound is considered.
Requested read-out: TGI. Entry: `CN(C)CCCNC(=O)c1cc2/c(=C\c3ccc(N(C)C)cc3)c3ccccc3n2[n+]1C`
39

---

Test system: HT29 colon
Test: NCI tumour cell line growth inhibition, 48 h
metric_name: TGI

Would you please look over these solved cases?
> print(dat)
                                   compound    result
1  CC(C)(C)c1ccc(C(C)(C)C)c(N2C(=O)[C@@H]3[C@@H]4C=C[C@@H](C4)[C@]3(C)C2=O)c1  > 100 µM
2  Clc1ccc2c(c1)C(Br)c1cc(Cl)cc(Cl)c1-2 (stereo not given)  > 100 µM
3  C/C(=C\COc1cc(O)c2c(c1)C(=O)c1cc(C)cc(O)c1C2=O)CCC1OC1(C)C (stereo not given)  > 100 µM
4  C=CCN1CCN([C@H](c2ccc(C(=O)N(CC)CC)cc2)c2cccc(OC)c2)CC1   > 25 µM
5  O=C1C(Cl)=C(N2CCN(CCOCCO)CC2)C(=O)c2ncccc21   > 10 µM
6           Cn1ccc(=O)c2c(O)c3ccccc3c(O)c21  > 100 µM
7       O=C(CSc1nc2ccccc2c2ccccc12)c1ccccc1  > 100 µM
8  Cn1ncc(NC(=O)c2nc(-c3c(F)cccc3F)sc2N)c1N1CC[C@@H](N)[C@H](F)CC1   27.5 µM
9  O=CN(CCN1CCCC1)C1CCc2cc(Cl)c(Cl)cc2C1 (stereo not given)   18.2 µM

Alright, here's another compound for you.
Field request: TGI | item: `CCOC(=O)N1C/C(=C/c2ccc(Cl)cc2)C(=O)/C(=C/c2ccc(Cl)cc2)C1`
3.95 µM

---

System: A498 renal
Experiment: NCI tumour cell line growth inhibition, 48 h; in the data active = GI50 below about 0.43 µM; inactive = the rest
// classify into Y for active, N for inactive

// below: answered molecules
molecule	class
COc1ccc(-c2cc(-c3ccccc3)nc(SCCCC(=O)NO)n2)cc1OC	Y
CC1=C2O[C@]3(O)C=C2C(=C(O)C1=O)[C@@H]1O[C@H](CC[C@H](C)/C=C(\C)C[C@@H](C)C[C@@H]3C)[C@H](C)[C@H](O)[C@H]1C	Y
COC(=O)[C@@H](C)C[C@H](Cc1ccc2ccccc2c1)NC(=O)c1csc([C@@H](C[C@H](C(C)C)N(C)C(=O)[C@@H](NC(=O)[C@H]2CCCCN2C)C(C)C)OC(C)=O)n1	Y
CC(C)=[CH][Sb]([Br])([CH]=C(C)C)([CH]=C(C)C)[c]1ccccc1	N
O=C(c1ccc(Cl)cc1)c1no[n+]([O-])c1C(=O)c1ccc(Cl)cc1	N

What outcome does the record of this test show for `CC(=O)/C=C/c1ccc(OCc2ccc(C(C)(C)C)cc2)cc1` ?
N

Next record, please: CC1(C)C(N(O)C(=O)Nc2ccc(Cl)cc2)N(c2ccc(Cl)cc2)C(=O)N1CC(=O)N/N=C/C=C/c1ccc([N+](=O)[O-])o1 (stereo not drawn)
N

Okay, and `CCC[CH2][Sn]1([CH2]CCC)[O]C(=O)c2cccc(C)c2[O]1` ?
Y

---

// GI50 lookup, one value per entry
Tested on: SK-MEL-28 melanoma
Test: NCI tumour cell line growth inhibition, 48 h

The cases that follow already have their GI50 on record.
> print(dat)
                                   molecule  metric.name    result
1  NCCCOc1cc2ccccc2cc1C(=O)NCCOc1nc2ccccc2cc1C(=O)Nc1ccc(Cl)cc1O         GI50    1.3 µM
2  CS(=O)(=O)O[C@H]1C(=O)N(c2cc3c4ccccc4ccc3c3ccccc23)[C@@H]1c1ccccc1         GI50  > 100 µM
3  CCN(CC)Cc1cc(Nc2c3ccc(Cl)cc3nc3ccc(OC)cc23)ccc1O         GI50   1.77 µM

// GI50 lookup, key: `O=C1Nc2ccccc2/C1=C\c1c(Cl)nc2sccn12`
4.91 µM

Thanks! And `NCCCCCCCCCCn1c2c(c3ccccc3c1=O)C(=O)c1ccccc1-2` ?
3.97 µM

Another molecule: `O=C(COc1nc2ccccc2nc1-c1ccccc1)Nc1ccc(Cl)cc1`
18.7 µM

Another molecule to look at: `O=C([O-])c1cc(I)cc(I)c1[OH2+].O=C([O-])c1cc(I)cc(I)c1[OH2+].[Mn+2]`
> 100 µM

Ok, now `O=C1C=CC(=O)c2cc3cc(CO)ccc3cc21`
29.5 µM

Now the same for CCCCCCCCCCS(=O)CC(CO)NC(=O)/C=C/c1c(C)[nH]c(=O)[nH]c1=O (centres undefined)
43.9 µM

Also `Nc1nc(N)c(N=Nc2ccccc2)c(-c2ccccc2)n1` ?
11.3 µM

Continue with CNC(=O)NCC1OC(n2cnc3c(NC(=O)Nc4ccccc4)ncnc32)C(O[Si](C)(C)C(C)(C)C)C1CC(=O)N(C)OC (centres undefined)
5.21 µM

Can you handle `O=c1c2cc(F)ccc2sc2c(Nc3ccncc3)nc3ccccc3c12` next?
1.99 µM

Another: `COc1cc(/C=C/c2cc(/C=C/c3ccc(O)c(OC)c3)n(-c3c(Cl)cccc3Cl)c(=O)n2)ccc1O`
2.74 µM

Also need `COc1cc2ccnc(C=O)c2cc1OC` , thanks.
12.4 µM

Please do the same for `COc1cccc(/C=N/[N-]C(=O)c2ccncc2)c1[O-].[Ni+2].[OH3+]` as well.
> 100 µM

Please do the same for `N#Cc1c(-c2ccccc2)cc(-c2ccccc2)n(CCCC(=O)NO)c1=O` as well.
2.88 µM

Would you mind doing `[N-]=[N+]=NCCCn1c2c(c3cc4c(cc3c1=O)OCO4)C(=O)c1ccccc1-2` as well?
> 100 µM

Moving on to `COc1cc2c3c(n(CCCNCCNCCN)c(=O)c2cc1OC)-c1cc2c(cc1C3=O)OCO2`
4.65 µM

Another: `CC(C)=[CH][Sb]([Br])([CH]=C(C)C)([CH]=C(C)C)[c]1ccccc1`
17.3 µM

---

Tested on: SK-MEL-5 melanoma
Assay: NCI tumour cell line growth inhibition, 48 h
Response key: 1 means TGI >= 10 µM; 0 means TGI < 10 µM.

Illustrative cases are given below, each with its answer.
> print(dat)
                                   compound       study.target  class
1      CCC(CC)c1nc(Nc2cccc(OC)c2)c2ccccc2n1  SK-MEL-5 melanoma      1
2  Cc1cc(=O)oc2cc(OCc3nc4ccccc4c(=O)n3-c3ccccc3)ccc12  SK-MEL-5 melanoma      1

Is TGI at least 10 µM? Consider `CNCC(=O)Nc1ccc2c(c1)C(=O)c1ccc(NC(=O)CNC)cc1C2=O`
1

Try `COc1ccc(/C=C/C(=O)c2cc3c(N)c(C(=O)Nc4cccc(Cl)c4C)sc3nc2C)cc1` next.
0

Same again, this time with `COc1cc2c(cc1I)-c1c(cc(OC)c(OC)c1OC)CC[C@@H]2NC(C)=O`
0

Next record, please: CN(C)C1C(=O)C(C(=O)NCN2CCCC2)=C(O)C2(O)C(=O)C3=C(O)c4c(O)cccc4C(C)(O)C3CC12 (stereo not given)
1

Let us now turn to `CC1(CO)COC(C)(C)OC1`
1

And `O=C(COc1nc2ccccc2nc1-c1ccccc1)Nc1ccc(Cl)cc1` ?
1

Consider next the compound C/C(=C\COc1cc(O)c2c(c1)C(=O)c1cc(C)cc(O)c1C2=O)CCC1OC1(C)C (stereo not given) in the same way.
1

Then what about the compound `O=C([O-])c1cc(I)cc(I)c1[OH2+].O=C([O-])c1cc(I)cc(I)c1[OH2+].[Mn+2]` ?
1

---

System: NCI/ADR-RES ovarian
Test: NCI tumour cell line growth inhibition, 48 h
metric_name: TGI (µM)
A number alone suffices; assume µM.

Consider the following illustrative entries.
> print(dat)
                                   molecule  metric.name  readout.units  measured.number
1  CCOC(=O)C1C(=O)C=C(c2cc(C)ccc2O)CC1c1cccc(Cl)c1 (centres undefined)          TGI             µM             54.2
2  CC12CP(=O)(c3ccccc3)CC1c1ccccc1C2c1ccccc1 (centres undefined)          TGI             µM             32.7
3  Cc1[nH]c(=O)[nH]c(=S)c1C(=O)NC1C2CCCCC2NC2CCCCC21 (centres undefined)          TGI             µM             40.2

Tell me the measured TGI of `NCCCCCCCCCCn1c2c(c3ccccc3c1=O)C(=O)c1ccccc1-2` , please.
28.5
